Consider the following binders; for each one, report its Ca ion level-increasing activity (FLIPR, 40 s).
SUBJECT OF TEST: human OT7T175 (metastin receptor) (human, UniProt Q969F8 1-398)
Sequence (Q969F8 whole entry L364H): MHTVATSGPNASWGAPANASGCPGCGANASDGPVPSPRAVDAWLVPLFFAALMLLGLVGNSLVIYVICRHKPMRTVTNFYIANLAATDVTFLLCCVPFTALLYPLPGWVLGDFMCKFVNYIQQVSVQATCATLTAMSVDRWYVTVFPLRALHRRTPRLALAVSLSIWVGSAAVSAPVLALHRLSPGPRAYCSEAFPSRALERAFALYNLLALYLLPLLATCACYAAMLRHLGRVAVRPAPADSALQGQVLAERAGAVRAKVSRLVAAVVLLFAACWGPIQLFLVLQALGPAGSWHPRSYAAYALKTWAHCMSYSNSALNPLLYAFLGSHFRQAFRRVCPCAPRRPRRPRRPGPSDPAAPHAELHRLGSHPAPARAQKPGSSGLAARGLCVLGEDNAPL
PROCEDURE DETAILS: cell-based or functional assay
Non-standard residues stand in square brackets, D forms with d. No end group written: not given here. *: point of attachment. 2‑(indol-3-yl)ethylcarbamoyl = O=C(NCCc1c[nH]c2ccccc12)*; Propanoyl(3-indol-3-yl) = O=C(CCc1c[nH]c2ccccc12)*; Arg(Me) = CNC(=N)NCCC[C@H](N)C(=O)O; azaGly = NNC(=O)O
Answer with the number, then the unit.

Lookup: Complete the entry with Ca ion level-increasing activity (FLIPR, 40 s) for YNWNSFGLRW-NH2 (also called Compound No. 134) [[Trp10]MS10]
Found: 0.5 EC50/MS10 EC50

Lookup: Complete the entry with Ca ion level-increasing activity (FLIPR, 40 s) for {Propanoyl(3-indol-3-yl)}-F[azaGly]L[Arg(Me)]F-NH2 (SMILES CNC(=N)NCCC[C@H](NC(=O)[C@H](CC(C)C)NC(=O)NNC(=O)[C@H](Cc1ccccc1)NC(=O)CCc1c[nH]c2ccccc12)C(=O)N[C@@H](Cc1ccccc1)C(N)=O) [des(1-5)-3-(3-Indolyl)propionyl-[AzaGly7,Arg(Me)9]MS10]
Found: 5.9 EC50/MS10 EC50

Lookup: Complete the entry with Ca ion level-increasing activity (FLIPR, 40 s) for [dY]NWNSFGLRF (not fully specified (C-terminus); also: C-terminal thioamide (CSNH2)) [[10Ψ,CSNH,D-Tyr1]MS10]
Found: 1.5 EC50/MS10 EC50

Lookup: Complete the entry with Ca ion level-increasing activity (FLIPR, 40 s) for YNWNSFGLXF (Nar(Me)9; C-terminal amide, also called Compound No. 311) [[Nar(Me)9]MS10]
Found: 6.2 EC50/MS10 EC50

Lookup: Complete the entry with Ca ion level-increasing activity (FLIPR, 40 s) for {2‑(indol-3-yl)ethylcarbamoyl}-NSF[azaGly]L[Arg(Me)]F-NH2 (SMILES CNC(=N)NCCC[C@H](NC(=O)[C@H](CC(C)C)NC(=O)NNC(=O)[C@H](Cc1ccccc1)NC(=O)[C@H](CO)NC(=O)[C@H](CC(N)=O)NC(=O)NCCc1c[nH]c2ccccc12)C(=O)N[C@@H](Cc1ccccc1)C(N)=O, also called Compound No. 279) [des(1-3)-2-(Indol-3-yl)ethylcarbamoyl-[AzaGly7,Arg(Me)9]MS10]
Found: 6.4 EC50/MS10 EC50
